Tested on: SK-OV-3 ovarian
Test: NCI-60 one-dose screen, 48 h
Details: 10 µM unless noted
Experimental: Growth inhibition of the SK-OV-3 human tumor cell line is measured as a screen for anti-cancer activity. Cells are grown in 96 well plates and exposed to the test compound for 48 hours. Compounds are tested at a single concentration, which is 10^-5 M for most compounds. The reported endpoint is percent growth (GI% or GIPRCNT), where numbers from 0 - 100% represent growth inhibition, and numbers from -100% - 0 represent cell death. For example, a value of 40 represents 60% growth inhibition. […]
About 83,000 compounds went through this panel and 20% of them were active in at least one assay; those are over-represented in the sample as a whole. The source made the active and inactive calls. How the source made its calls: active means growth percent below 10; inactive means the rest.
Could you please pick one outcome from this set? active, inactive

Input line: Dear colleague, could you share the recorded outcome for Cc1ccc2c(c1)C(C)Cc1c(N(C)C)ncnc1N2C (centres undefined) when you have a moment?
Output line: inactive

Input line: Can you handle N=C(N)c1ccc(-c2ccc(-c3ccc(Cl)cc3)o2)nc1 next?
Output line: active

Input line: Can you handle Cc1ccc(C2=NN(c3ccc(S(=O)(=O)NC(=O)NCc4ccccc4)cc3)C(c3ccc(N(C)C)cc3)C2)c(C)c1 (centres undefined) next?
Output line: inactive

Input line: Can you handle CCCCCCCCCCn1cc[n+](C)c1 next?
Output line: inactive
